procedure-text: Solubility of Form A in physiologically relevant media (37° C.)
Format: physicochemical
condition-set: pH 4.9, aqueous buffer, thermodynamic from solid, pH 3 (0.001N HCl), final measured pH 4.90
property: solubility

C[C@@H]1CN(Cc2cccc(OC(F)(F)F)c2)CCN1C(=O)Oc1cncc(C(N)=O)c1 [Form A]	57 µg/mL

* * *

procedure-text: Visual solubility assessment of Form B at room temperature
Type: physicochemical
condition-set: organic solvent or mixture, thermodynamic from solid; 2-Me THF, room temperature
property: solubility at 3 min

C[C@@H]1CN(Cc2cccc(OC(F)(F)F)c2)CCN1C(=O)Oc1cncc(C(N)=O)c1 [Form B]	> 810 mg/mL

* * *

procedure-text: Visual solubility assessment of Form B at room temperature
Type: physicochemical
condition-set: organic solvent or mixture, thermodynamic from solid; Nitromethane, room temperature
property: solubility at 3 min

C[C@@H]1CN(Cc2cccc(OC(F)(F)F)c2)CCN1C(=O)Oc1cncc(C(N)=O)c1 [Form B]	> 560 mg/mL

* * *

procedure-text: Form A solubility study in FaSSIF-v2 and FeSSIF-v2 at 37° C.
Type: physicochemical
condition-set: FaSSIF-v2, thermodynamic from solid; FaSSIF (pH 6.5), 37° C., 24 hr, final pH 6.6
property: solubility at 24 h (mg/mL)

C[C@@H]1CN(Cc2cccc(OC(F)(F)F)c2)CCN1C(=O)Oc1cncc(C(N)=O)c1 [Form A]	0.063

* * *

procedure-text: 2-hrs equilibrium solubility in FaSSIF and FeSSIF (version 2)
Type: physicochemical
condition-set: FeSSIF (version 2), fessif, thermodynamic from solid
property: solubility thermodynamic at 2 h (µg/mL)

C[C@@H]1CN(Cc2cccc(OC(F)(F)F)c2)CCN1C(=O)Oc1cncc(C(N)=O)c1 [Form A]	80

* * *

procedure-text: Visual solubility assessment of Form B at room temperature
Assay type: physicochemical
condition-set: organic solvent or mixture, thermodynamic from solid; Dichloromethane, room temperature
property: solubility at 3 min

C[C@@H]1CN(Cc2cccc(OC(F)(F)F)c2)CCN1C(=O)Oc1cncc(C(N)=O)c1 [Form B]	> 830 mg/mL

* * *

procedure-text: Solubility of Form B in FaSSIF-v2 and FeSSIF-v2 at 37° C.
Format: physicochemical
condition-set: FaSSIF-v2, thermodynamic from solid, FaSSIF (pH 6.5), final pH 6.6
property: solubility at 2 h (µg/mL)

C[C@@H]1CN(Cc2cccc(OC(F)(F)F)c2)CCN1C(=O)Oc1cncc(C(N)=O)c1 [Form B]	120

* * *

procedure-text: physchem
condition-set: organic solvent or mixture, thermodynamic from solid, Approximate solubility, Anisole, RT
property: solubility

C[C@@H]1CN(Cc2cccc(OC(F)(F)F)c2)CCN1C(=O)Oc1cncc(C(N)=O)c1 [Form A]	> 20 mg/mL

* * *

procedure-text: Visual solubility assessment of Form B at room temperature
Assay type: physicochemical
condition-set: organic solvent or mixture, thermodynamic from solid; Acetonitrile, room temperature
property: solubility at 3 min

C[C@@H]1CN(Cc2cccc(OC(F)(F)F)c2)CCN1C(=O)Oc1cncc(C(N)=O)c1 [Form B]	> 720 mg/mL

* * *

procedure-text: Visual solubility assessment of Form B at room temperature
Format: physicochemical
condition-set: organic solvent or mixture, thermodynamic from solid; EtOH, room temperature
property: solubility at 3 min

C[C@@H]1CN(Cc2cccc(OC(F)(F)F)c2)CCN1C(=O)Oc1cncc(C(N)=O)c1 [Form B]	> 800 mg/mL
